Every entry's value here was drawn from paper PMC8687477.

Molecular target: SARS-CoV-2 nucleocapsid protein (N), 2X-StrepTag tagged (SARS-CoV-2, UniProt P0DTC9 1-419)
Assay: BLI
Would you kindly list pKd for each of these binders?
Lab note — pKd values are minus log10 of concentrations in M.

Exam item: Requested read-out: pKd. Entry: recombinant human CXCL14 (ligand) SKCKCSRKGPKIRYSDVKKLEMKPKYPHCEEKMVIITTKSVSRYRGQEHCLHPKLQSTKRFIKWYNAWNEKRRVYEE
Marked response: 7.35

Exam item: // same read-out, input: recombinant human CCL28 (ligand) SEAILPIASSCCTEVSHHISRRLLERVNMCRIQRADGDCDLAAVILHVKRRRICVSPHNHTVKQWMKVQAAKKNGKGNVCHRKKHHGKRNSNRAHQGKHETYGHKTPY
Marked response: 7.66

Exam item: Continue with recombinant human CCL21 (ligand) SDGGAQDCCLKYSQRKIPAKVVRSYRKQEPSLGCSIPAILFLPRKRSQAELCADPKELWVQQLMQHLDKTPSPQKPAQGCRKDRGASKTGKKGKGSKGCKRTERSQTPKGP
Marked response: 7.85

Exam item: What do you have for recombinant human CXCL9 (ligand) TPVVRKGRCSCISTNQGTIHLQSLKDLKQFAPSPSCEKIEIIATLKNGVQTCLNPDSADVKELIKKWEKQVSQKKKQKNGKKHQKKKVLKVRKSQRSRQKKTT ?
Marked response: 7.92

Exam item: # iterate: recombinant human CCL26 (ligand) TRGSDISKTCCFQYSHKPLPWTWVRSYEFTSNSCSQRAVIFTTKRGKKVCTHPRKKWVQKYISLLKTPKQL
Marked response: 7.59

Exam item: Same question for recombinant human CXCL4 (ligand) EAEEDGDLQCLCVKTTSQVRPRHITSLEVIKAGPHCPTAQLIATLKNGRKICLDLQAPLYKKIIKKLLES please.
Marked response: 6.77

Exam item: And for recombinant human CXCL11 (ligand) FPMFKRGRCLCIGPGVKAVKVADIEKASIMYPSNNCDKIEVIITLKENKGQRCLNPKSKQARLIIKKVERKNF ?
Marked response: 6.89
